Source: ChEMBL document CHEMBL2040827

- procedure.text: Ratio of drug uptake in Sprague-Dawley rat cerebrospinal fluid at 10 mg/kg, po to protein binding in rat plasma
- Format: ADME, organism-based, CSF/Plasma
- Design: dose 10 mg/kg, route oral
- condition.set: in vivo
I'd be grateful if you could share measured Ratio for these entries.
// no unit string in output, number only

Task: Param item = `O=C(O)c1cc(CN2CCN(c3ccc(C(F)(F)F)cc3)CC2)c2ccccn2c1=O` ; retrieve measured Ratio.
Output: 0.25

Task: Param item = `O=C(O)c1cc(CN2CCN(c3ccncc3)CC2)c2ccccn2c1=O` ; retrieve measured Ratio.
Output: 0.02

Task: Param item = `N#Cc1ccc(N2CCN(Cc3cc(C(=O)O)c(=O)n4ccccc34)CC2)cc1` ; retrieve measured Ratio.
Output: 0.42

Task: Param item = `O=C(O)c1cc(CN2CCN(c3ccc(Br)cc3)CC2)c2ccccn2c1=O` ; retrieve measured Ratio.
Output: 0.32

###

- Test system: Cerebrospinal fluid
- procedure.text: Drug uptake in Sprague-Dawley rat cerebrospinal fluid at 10 mg/kg, po
- Format: ADME, organism-based
- Parameters: dose 10 mg/kg, route oral
- condition.set: in vivo, read-out: Drug uptake
quantity.measured: concentration (nM)
Supply the numeric figure in nM, leaving out any unit text.

Task: Param item = `O=C(O)c1cc(CN2CCN(c3ccc(C(F)(F)F)cc3)CC2)c2ccccn2c1=O` ; retrieve measured concentration.
Output: 14

Task: Param item = `O=C(O)c1cc(CN2CCN(c3ccc(Br)cc3)CC2)c2ccccn2c1=O` ; retrieve measured concentration.
Output: 70

Task: Param item = `N#Cc1ccc(N2CCN(Cc3cc(C(=O)O)c(=O)n4ccccc34)CC2)cc1` ; retrieve measured concentration.
Output: 85

Task: Param item = `O=C(O)c1cc(CN2CCN(c3ccncc3)CC2)c2ccccn2c1=O` ; retrieve measured concentration.
Output: 16

###

- Test system: P-glycoprotein
- procedure.text: Passive permeability of the compound assessed as P-glycoprotein-mediated drug transport
- Format: ADME
- condition.set: not told
quantity.measured: Papp

Task: Param item = `O=C(O)c1cc(CN2CCN(c3ccc(Br)cc3)CC2)c2ccccn2c1=O` ; retrieve measured Papp.
Output: 16 ×10⁻⁶ cm/s

Task: Param item = `N#Cc1ccc(N2CCN(Cc3cc(C(=O)O)c(=O)n4ccccc34)CC2)cc1` ; retrieve measured Papp.
Output: 22 ×10⁻⁶ cm/s

Task: Param item = `O=C(O)c1cc(CN2CCN(c3ccc(C(F)(F)F)cc3)CC2)c2ccccn2c1=O` ; retrieve measured Papp.
Output: 32 ×10⁻⁶ cm/s

Task: Param item = `O=C(O)c1cc(CN2CCN(c3ccncc3)CC2)c2ccccn2c1=O` ; retrieve measured Papp.
Output: < 5 ×10⁻⁶ cm/s

###

- procedure.text: Protein binding in rat plasma
- Format: ADME, cell-free
- condition.set: read-out: PPB (converted)
quantity.measured: fraction unbound
// no unit string in output, number only

Task: Param item = `O=C(O)c1cc(CN2CCN(c3ccccc3)CC2)c2ccccn2c1=O` ; retrieve measured fraction unbound.
Output: 0.369

Task: Param item = `O=C(O)c1cc(CN2CCN(c3ccc(C(F)(F)F)cc3)CC2)c2ccccn2c1=O` ; retrieve measured fraction unbound.
Output: 0.034

Task: Param item = `O=C(O)c1cc(Cc2ccc(-c3cccnc3)cc2)c2ccccn2c1=O` ; retrieve measured fraction unbound.
Output: 0.015

Task: Param item = `O=C(O)c1cc(CN2CCN(c3ccc(Br)cc3)CC2)c2ccccn2c1=O` ; retrieve measured fraction unbound.
Output: 0.039

Task: Param item = `O=C(O)c1cc(CN2CCN(c3ccccc3)C(=O)C2)c2ccccn2c1=O` ; retrieve measured fraction unbound.
Output: 0.62

Task: Param item = `N#Cc1ccc(N2CCN(Cc3cc(C(=O)O)c(=O)n4ccccc34)CC2)cc1` ; retrieve measured fraction unbound.
Output: 0.062
